Tested on: P12-Ichikawa
Assay: cell viability relative to DMSO control; higher = less cytotoxic
Settings: HPLM + 10% dialyzed FBS; 48 h; 0.19 µM
Consider the following molecules; for each one, report its cell viability.
Give bare numbers, in %.

Worked cases, cell viability given:
>>> df
                                   molecule  assayed_system  observed_property  readout_value
0  CCC[C@@H](C=O)NC(=O)[C@H](CC(C)C)NC(=O)[C@H](CC(C)C)NC(=O)OCc1ccccc1    P12-Ichikawa     cell viability            118
1    Clc1ccccc1C(c1ccccc1)(c1ccccc1)n1cccn1    P12-Ichikawa     cell viability            130
2  O=[S+]([O-])(O)c1ccc2cc(/N=N/c3cc([S+](=O)([O-])O)c4cccnc4c3O)ccc2c1    P12-Ichikawa     cell viability            120
3  COc1nccc(-c2c(-c3ccc(F)cc3)ncn2C2CCC(O)CC2)n1 (stereo not drawn)    P12-Ichikawa     cell viability            115
4  CO[C@@H]1[C@@H](OC(N)=O)[C@@H](O)[C@H](OC2=CC=C3\C(=C(NC(=O)C4=CC=C([O-])C(=C4)CC=C(C)C)/C(=O)OC3=C2C)O)OC1(C)C    P12-Ichikawa     cell viability            106
5  Cc1ccc(NC(=O)c2cccc(N(C)C)c2)cc1NC(=O)c1ccc(O)cc1    P12-Ichikawa     cell viability            116

Okay, here is my list. What is cell viability for each of these?
1. CC(C)(C)Cn1c(N)nc2ccc(-c3[nH]c(C(C)(C)C)nc3-c3ccc(F)cc3)nc21
2. CC1=CC=C2\N=C/3N(CC[C@@]3(O)C(=O)C2=C1)C4=CC=CC=C4

Response:
1. 78.7
2. 88.8

These data points were gathered from the supplement of paper PMC11451515.
